Measured values drawn from ChEMBL document CHEMBL1142883 for this set.

# system-under-test: Glutamate NMDA receptor
# method-description: Displacement of [3H]MK-801 from rat brain NMDA receptor
Provide the reported log10 IC50 of each item.
Hi team, quick reminder: these entries are log10 of IC50 (µM).

Fill blank: measured log10 IC50 of the compound "N=C(N)NCCCCCCCCc1ccc(CCCNC(=N)N)s1" is ____.
-0.51

Fill blank: measured log10 IC50 of the compound "NCCCCc1ccc(CCCCNC(=O)CCN)s1" is ____.
0.08

Fill blank: measured log10 IC50 of the compound "CN(C)CCCCCCCCc1ccc(CC2CCNCC2)s1" is ____.
1.18

Fill blank: measured log10 IC50 of the compound "CN(C)CCCCCCCCc1ccc(CCCCN(C)C)s1" is ____.
2.55

Fill blank: measured log10 IC50 of the compound "NCCCCCCCCc1ccc(CCCCN)cc1" is ____.
-0.06

Fill blank: measured log10 IC50 of the compound "NCCCCc1ccc(CCNC(=O)CNC(=O)CN)s1" is ____.
2.05

Fill blank: measured log10 IC50 of the compound "NCCCCC#CCCCCCCCCN" is ____.
0.83

----------
# system-under-test: Glutamate NMDA receptor
# method-description: Displacement of [3H]MK-801 from rat brain NMDA receptor
Please use Met for IC50 under 2 µM and Not met for everything else, ties included.

Strictly below 2 µM: is that where IC50 of "NCCCCCCCCNC(=O)CCN" sits?
Not met

Strictly below 2 µM: is that where IC50 of "c1ccc(CNCCCCCCCCc2ccc(CCCCNCc3ccccc3)s2)cc1" sits?
Not met

Strictly below 2 µM: is that where IC50 of "NCCCCc1ccc(Cc2ccc(CCCCN)s2)s1" sits?
Met

Strictly below 2 µM: is that where IC50 of "Cc1cc(CCCCN)sc1CCCCCCCCN" sits?
Met

Strictly below 2 µM: is that where IC50 of "NCCCCc1ccc(CCNCCNCCN)s1" sits?
Not met

Strictly below 2 µM: is that where IC50 of "NCCCCCCCCc1ccc(CCCCN)s1" sits?
Met

Strictly below 2 µM: is that where IC50 of CC(CN)C(=O)NCCCCc1ccc(CCCCN)s1 (stereo not drawn) sits?
Not met

Strictly below 2 µM: is that where IC50 of "NCCCCc1ccc(CCCCNCCCN)s1" sits?
Not met

Strictly below 2 µM: is that where IC50 of "NCCCCCCCCCCCCN" sits?
Not met

Strictly below 2 µM: is that where IC50 of "Cc1cc(CCCCCCCCN)sc1CCCCN" sits?
Met

Strictly below 2 µM: is that where IC50 of "NCCCCc1ccc(CCCCN(Cc2ccccc2)C(=O)C[C@@H](N)Cc2ccccc2)s1" sits?
Not met

Strictly below 2 µM: is that where IC50 of CC(N)CC(=O)NCCCCc1ccc(CCCCN)s1 (stereo not drawn) sits?
Not met

Strictly below 2 µM: is that where IC50 of "NCCCCCCCCc1ccc(CC2CCNCC2)s1" sits?
Met

Strictly below 2 µM: is that where IC50 of NCCCCc1ccc(CCCCNC(=O)C(CN)c2ccccc2)s1 (stereo not drawn) sits?
Not met

Strictly below 2 µM: is that where IC50 of NCCCCc1ccc(CCCCNC(=O)CC(N)c2ccccc2)s1 (stereo not drawn) sits?
Not met

Strictly below 2 µM: is that where IC50 of "N=C(N)NCCCCCCCCc1ccc(CCCCNC(=N)N)s1" sits?
Met

Strictly below 2 µM: is that where IC50 of "N=C(N)NCCCCCCc1ccc(CCNC(=N)N)s1" sits?
Met

Strictly below 2 µM: is that where IC50 of "NCCCCCCCCCCCCCCN" sits?
Not met

Strictly below 2 µM: is that where IC50 of "NCCCCc1ccc(CCCCN(CC[C@@H](N)Cc2ccccc2)Cc2ccccc2)s1" sits?
Not met

Strictly below 2 µM: is that where IC50 of "NCCCCc1ccc(CCOCCOCCN)s1" sits?
Not met

Strictly below 2 µM: is that where IC50 of "CNCCCCCCCCc1ccc(CC2CCNCC2)s1" sits?
Not met

Strictly below 2 µM: is that where IC50 of "CCCNCCCCCCCCc1ccc(CCCCNCCC)s1" sits?
Not met

Strictly below 2 µM: is that where IC50 of "CNCCCCCCCCc1ccc(CCCCNC)s1" sits?
Not met

Strictly below 2 µM: is that where IC50 of "N=C(N)NCCCCCCCc1ccc(CCCNC(=N)N)s1" sits?
Met

Strictly below 2 µM: is that where IC50 of "CCc1cc(CCCCN)sc1CCCCCCCCN" sits?
Not met

Strictly below 2 µM: is that where IC50 of "NCCCCCCCCc1ccc(Cc2ccccc2CN)s1" sits?
Met

Strictly below 2 µM: is that where IC50 of "NCCCCCCCCc1ccc(CCCN)s1" sits?
Not met

Strictly below 2 µM: is that where IC50 of "C=CCNCCCCCCCCc1ccc(CCCCNCC=C)s1" sits?
Not met
